# tgt: Human farnesyl protein transferase (Homo sapiens, UniProt P49354+P49356)
# Construct: grown as monolayer cell cultures were used as a source of human enzyme; endogenous in cells; 30-50% ammonium sulfate fraction, then Q Fast Flow Sepharose
# measurement_protocol: In vitro assay for inhibition of farnesyl protein transferase (scintillation proximity assay)
# experimental_parameters: concentration producing 50% inhibition of enzyme activity; [3H]-farnesylpyrophosphate and biotinylated lamin B peptide substrates, 60 min at 37° C.
IC50 for assorted molecules
measured_property: IC50 (nM)

{"molecule": "Cn1c(=O)cc(-c2cccc(Cl)c2)c2cc(C(c3ccc(Cl)cc3)c3c[nH]cn3)ccc21 (stereo not shown) [Compound 45]", "measured_property": "IC50", "measurement_units": "nM", "readout_number": 1000}
{"molecule": "Cn1cncc1C(O)(c1ccc(Cl)cc1)c1ccc2c(c1)c(-c1cccc(OCCO)c1)cc(=O)n2C (stereo not shown) [Compound 63]", "measured_property": "IC50", "measurement_units": "nM", "readout_number": 1}
{"molecule": "COc1cccc(-c2cc(=O)n(C)c3ccc(C(O)(c4ccc(Cl)cc4)c4cncn4C)cc23)c1 (racemic) [Compound 36]", "measured_property": "IC50", "measurement_units": "nM", "readout_number": 2.8}
{"molecule": "CCCc1cccc(-c2cc(=O)n(C)c3ccc(C(O)(c4ccc(Cl)cc4)c4cncn4C)cc23)c1 (stereo not shown) [Compound 99]", "measured_property": "IC50", "measurement_units": "nM", "readout_number": 1.7}
{"molecule": "Cn1cncc1C(c1ccc(Cl)cc1)c1ccc2c(c1)c(-c1cccc(Cl)c1)cc(=O)n2C (racemic) [Compound 5]", "measured_property": "IC50", "measurement_units": "nM", "readout_number": 25}
{"molecule": "CCOc1cccc(-c2cc(=O)n(C)c3ccc(C(c4ccc(Cl)cc4)c4cncn4C)cc23)c1 (stereo not shown) [Compound 35]", "measured_property": "IC50", "measurement_units": "nM", "readout_number": 0.39}
{"molecule": "Cn1cncc1C(CC#N)(c1ccc(Cl)cc1)c1ccc2c(c1)c(-c1cccc(Cl)c1)cc(=O)n2C (racemic) [Compound 25]", "measured_property": "IC50", "measurement_units": "nM", "readout_number": 2.2}

---

# tgt: Human farnesyl protein transferase (Homo sapiens, UniProt P49354+P49356)
# Construct: grown as monolayer cell cultures were used as a source of human enzyme; endogenous in cells; 30-50% ammonium sulfate fraction, then Q Fast Flow Sepharose
# measurement_protocol: In vitro assay for inhibition of farnesyl protein transferase (scintillation proximity assay)
# experimental_parameters: concentration producing 50% inhibition of enzyme activity; [3H]-farnesylpyrophosphate and biotinylated lamin B peptide substrates, 60 min at 37° C.
pIC50: −log10 of the molar value.

{"molecule": "CCc1cccc(-c2cc(=O)n(C)c3ccc(C(O)(c4ccc(Cl)cc4)c4cncn4C)cc23)c1 (stereo not shown)", "pIC50": 8.54}
{"molecule": "Cn1cncc1C(c1ccc(Cl)cc1)c1ccc2c(c1)c(-c1ccccc1)cc(=O)n2C (racemic)", "pIC50": 8.10}
{"molecule": "Cn1cncc1C(CCl)(c1ccc(Cl)cc1)c1ccc2c(c1)c(-c1cccc(Cl)c1)cc(=O)n2C (racemic)", "pIC50": 8.47}
{"molecule": "CCCc1cccc(-c2cc(=O)n(C)c3ccc(C(N)(c4ccc(Cl)cc4)c4cncn4C)cc23)c1 (stereo not shown)", "pIC50": 9.28}
